Numbers sourced from patent US20240239886A1.

- target: T1, recombinant protein consisting of the extracellular domain of human TREM2 fused to the His tag (human, UniProt Q9NZC2 19-174)
- T1 construct: also called His tagged hTREM2; His-TREM2
- T1 sequence: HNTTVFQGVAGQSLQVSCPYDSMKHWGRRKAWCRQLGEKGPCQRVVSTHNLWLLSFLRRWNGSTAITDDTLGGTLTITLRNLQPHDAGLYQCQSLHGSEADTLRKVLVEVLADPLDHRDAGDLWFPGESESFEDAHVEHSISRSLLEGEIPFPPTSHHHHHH
- method_description: direct ELISA; highest dilution with S/B >= 2.1
assay_readout: Titer (dilution)
Numbers only; they are read as dilution.

Lab book: Titer of 60H4G2 (antibody, V domains shown, Biotin conjugated in sup ELISA, cell-based ELISA and flow cytometry) VH: EVQLQESGPELVKPGASVKMSCKASGYTFTDYNMHWVKQSHGKSLEWIGYIYPNNGGTGYNQKFKGKATLTVNKSSSTAYMELRSLTSEDSAVYYCARSGRGFAYWGQGTLVTVSA VL: DIVMTQSTSSLTVTAGEKVTMSCKSSQSLLNSGNQKNYLTWYQQKPGQPPKLLIYWASSRESGVPDRFTGRGSGTDFTLTISSVQAEDLAVYYCQNDYSYPFTFGSGTKLEIK noted as 729000

Lab book: Titer of 83E10B12 (antibody, V domains shown, Biotin conjugated in sup ELISA, cell-based ELISA and flow cytometry) VH: QVQLQESGPELVKPGASVKISCKASGYIFSYSWMNWVKQRPGKGLEWIGRIYPGDGDADYNGKFKGKATLTADKSSNTAYMQLTSLTSEDSAVYFCARLHIYDGYYVSVYWGQGTLVTVSA VL: DIQMTQTTSCLSASLGDRVTISCRASQDINNYLSWYQQKPDGTVKLLIYYTSKLHSGVPSRFSGSGSGTDYSLTIGNLEQEDVATYFCQQGDTLPWTFGGGTRLEIK noted as 243000

Lab book: Titer of 60H4A3 (antibody, V domains shown, Biotin conjugated in sup ELISA, cell-based ELISA and flow cytometry) VH: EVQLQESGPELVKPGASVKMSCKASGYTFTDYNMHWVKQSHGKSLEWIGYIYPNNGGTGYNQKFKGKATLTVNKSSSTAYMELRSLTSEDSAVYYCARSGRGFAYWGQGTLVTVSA VL: DIVMTQSPASLSVTPGDRVSLSCRASQSISDYLHWYQQKSHESPRLLIKYASQSISGIPSRFSGSGSGSDFTLSINSVEPEDVGVYYCQNGHSFPYTFGGGTKLEIK noted as 2.19e+06
